# system_under_test: UniProtKB P78348
# Sequence (P78348 1-528): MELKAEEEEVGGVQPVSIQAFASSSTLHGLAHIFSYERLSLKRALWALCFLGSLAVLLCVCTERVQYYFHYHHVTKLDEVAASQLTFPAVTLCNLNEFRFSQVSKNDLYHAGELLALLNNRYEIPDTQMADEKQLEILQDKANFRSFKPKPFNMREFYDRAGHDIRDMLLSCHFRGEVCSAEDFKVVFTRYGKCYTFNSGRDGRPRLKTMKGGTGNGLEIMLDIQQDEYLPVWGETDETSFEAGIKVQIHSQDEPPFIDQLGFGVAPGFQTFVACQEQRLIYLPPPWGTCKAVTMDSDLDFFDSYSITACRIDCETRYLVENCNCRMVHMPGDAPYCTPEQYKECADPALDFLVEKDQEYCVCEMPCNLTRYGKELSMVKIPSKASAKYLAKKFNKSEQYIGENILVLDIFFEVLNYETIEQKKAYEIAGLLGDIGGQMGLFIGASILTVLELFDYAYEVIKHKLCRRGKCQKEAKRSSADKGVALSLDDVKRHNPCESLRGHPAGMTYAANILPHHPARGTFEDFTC
# protocol: Whole cell patch clamp in HEK293 cells transfected with hASIC1a
# Format: cell-based
# Design: expressed in transfected cells; host or cells: Xenopus laevis oocytes, nuclear microinjection of an expression vector such as pCDNA3
readout: pIC50
# pIC50 is unitless: minus log10 of the molar concentration; print number only

Please look at this molecule and report its pIC50: "CCN1CCc2c(-c3cc(Cl)ccc3OC)cc(C#N)c(N)c2C1"
5.29

---

Some compounds, each annotated with its measured pIC50.
# system_under_test: ASIC1a (Homo sapiens, UniProt P78348)
# protocol: Calcium-imaging (FLIPR) of MES-induced calcium response in ASIC1a expressing HEK293 cells
# Format: cell-based
# Design: host or cells: HEK293
pIC50: −log10 of the molar value.

> print(dat)
                           molecular.string  readout   value
1  CCN1CCc2c(-c3cc(C)cc(C)c3)cc(C#N)c(N)c2C1    pIC50  > 5.00

Continue with the compound presented below.
Please look at this compound and report its pIC50: "CCN1CCc2c(-c3cc(Cl)ccc3OC)cc(C#N)c(N)c2C1"
> 5.00

---

# system_under_test: ASIC1a (Homo sapiens, UniProt P78348)
# protocol: Two-electrode voltage clamp of acid-induced currents in Xenopus laevis oocytes
# Type: cell-based
# Set-up: expressed in transfected cells; host or cells: Xenopus laevis oocytes, nuclear microinjection of an expression vector such as pCDNA3
# measurement_context: Xenopus laevis oocytes, three point dose-response; read-out: IC50, half maximal inhibition of the acid-evoked response in hASIC1a
readout: IC50
State the value with its unit after it.

State recorded IC50 with ASIC1a (Homo sapiens, UniProt P78348), entry CCN1CCc2c(-c3ccccc3)cc(C#N)c(N)c2C1 [Compound 12] , no comment.
5.9 µM

---

# system_under_test: ASIC1a (Homo sapiens, UniProt P78348)
# protocol: Two-electrode voltage clamp of acid-induced currents in Xenopus laevis oocytes
# Assay type: cell-based
# Parameters: expressed in transfected cells; host or cells: Xenopus laevis oocytes, nuclear microinjection of an expression vector such as pCDNA3
# measurement_context: 50 μM, Xenopus oocytes; read-out: % inh. at 50 μM (Xo)
readout: inhibition at 50 µM

> print(dat)
                           molecular.string              readout      value
1  CCN1CCc2c(-c3ccccc3)cc(-c3cnn(C)c3N)c(N)c2C1  inhibition at 50 µM      > 30%
2  CCN1CCc2c(-c3ccccc3)cc(/C(N)=N/O)c(N)c2C1  inhibition at 50 µM      > 30%
3  CCN1CCc2c(-c3cc(F)ccc3OC)ccc(NCC(=O)OC)c2C1  inhibition at 50 µM      < 20%
4    CCN1CCc2c(-c3ccccc3)cc(Br)c(N(C)C)c2C1  inhibition at 50 µM  20 to 30%

Continue with the compound presented below.
Please look at this compound and report its inhibition at 50 µM: "CCN1CCc2c(-c3cc(F)ccc3OC)ccc(NC)c2C1"
> 40%

---

Some compounds, each annotated with its measured inhibition at 50 µM.
# system_under_test: ASIC1a (Homo sapiens, UniProt P78348)
# protocol: Two-electrode voltage clamp of acid-induced currents in Xenopus laevis oocytes
# Assay type: cell-based
# Parameters: expressed in transfected cells; host or cells: Xenopus laevis oocytes, nuclear microinjection of an expression vector such as pCDNA3
# measurement_context: 50 μM, Xenopus oocytes; read-out: % inh. at 50 μM (Xo)

Use these answered entries as a reference point.
> print(dat)
                                   compound              readout      value
1  CCN1CCc2c(-c3ccccc3)cc(C#N)c(Cl)c2C1 [Compound 52]  inhibition at 50 µM  25 to 35%
2  CCN1CCc2c(-c3ccccc3)cc(C#N)c(N)c2C1 [Compound 12]  inhibition at 50 µM      > 50%
3  CCN1CCc2c(-c3ccccc3)cc(C#N)c(O)c2C1 [Compound 42]  inhibition at 50 µM  20 to 30%

Continue with the compound presented below.
Please look at this compound and report its inhibition at 50 µM: CCN1CCc2c(-c3cc(F)ccc3OC)ccc(N3CC(=O)NC3=O)c2C1 [Compound 25]
> 40%

---

# system_under_test: ASIC1a (Homo sapiens, UniProt P78348)
# Sequence (P78348 1-528): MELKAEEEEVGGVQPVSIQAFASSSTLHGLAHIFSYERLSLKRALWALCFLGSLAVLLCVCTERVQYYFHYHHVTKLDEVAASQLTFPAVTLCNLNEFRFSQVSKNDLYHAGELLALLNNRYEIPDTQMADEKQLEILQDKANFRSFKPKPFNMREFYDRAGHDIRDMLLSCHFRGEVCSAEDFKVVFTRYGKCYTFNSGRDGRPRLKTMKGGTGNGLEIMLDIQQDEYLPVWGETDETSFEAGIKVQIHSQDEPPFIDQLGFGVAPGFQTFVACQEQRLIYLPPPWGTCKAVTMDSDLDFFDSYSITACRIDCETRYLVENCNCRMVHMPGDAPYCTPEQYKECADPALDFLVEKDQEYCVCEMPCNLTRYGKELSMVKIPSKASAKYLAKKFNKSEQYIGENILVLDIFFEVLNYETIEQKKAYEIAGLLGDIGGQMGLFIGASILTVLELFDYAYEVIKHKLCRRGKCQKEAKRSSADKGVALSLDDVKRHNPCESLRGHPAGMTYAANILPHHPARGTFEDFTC
# protocol: Two-electrode voltage clamp of acid-induced currents in Xenopus laevis oocytes
# Type: cell-based
# Design: expressed in transfected cells; host or cells: Xenopus laevis oocytes, nuclear microinjection of an expression vector such as pCDNA3
# measurement_context: 50 μM, Xenopus oocytes; read-out: % inh. at 50 μM (Xo)
Some compounds, each annotated with its measured inhibition at 50 µM.

Use these answered entries as a reference point.
> print(dat)
                           molecular.string      value
1  CCN1CCc2c(-c3ccccc3)cc(C#N)c(N3C(=O)CCC3=O)c2C1  20 to 30%
2     CCN1CCc2c(-c3ccccc3OC)cc(C#N)c(N)c2C1      > 50%
3   CCN1CCc2c(-c3ccccc3)cc(C#N)c(N(C)C)c2C1      > 50%
4          CCN1CCc2c(cc(C#N)cc2-c2ccccc2)C1      > 30%

Please look at this compound and report its inhibition at 50 µM: "CCOC(=O)CNC(=O)Nc1ccc(-c2cc(F)ccc2OC)c2c1CN(CC)CC2"
20 to 30%

Please look at this compound and report its inhibition at 50 µM: "CCN1CCc2c(-c3ccccc3)cc(C#N)c(NS(C)(=O)=O)c2C1"
15 to 25%

Please look at this compound and report its inhibition at 50 µM: "CCN1CCc2c(-c3ccccc3)cc(C#N)c(-c3cccnc3)c2C1"
45 to 55%

Please look at this compound and report its inhibition at 50 µM: "COc1ccc(F)cc1-c1cc(-c2noc(=O)[nH]2)c(N)c2c1CCN(C)C2"
< 20%

Please look at this compound and report its inhibition at 50 µM: "CCN1CCc2c(-c3ccccc3)cc(C#N)c(Br)c2C1"
> 30%

---

Some molecules, each annotated with its measured inhibition at 50 µM.
# system_under_test: ASIC1a (Homo sapiens, UniProt P78348)
# protocol: Two-electrode voltage clamp of acid-induced currents in Xenopus laevis oocytes
# Assay type: cell-based
# Design: expressed in transfected cells; host or cells: Xenopus laevis oocytes, nuclear microinjection of an expression vector such as pCDNA3
# measurement_context: 50 μM, Xenopus oocytes; read-out: % inh. at 50 μM (Xo)

Use these answered entries as a reference point.
> print(dat)
                                   molecule      value
1  CCN1CCc2c(-c3ccccc3)cc(-c3ccc(C)nn3)c(N)c2C1 [Compound 39]  20 to 30%
2  CCN1CCc2c(-c3cc(C)ccc3C)cc(C#N)c(N)c2C1 [Compound 47]      > 40%
3  CCN1CCc2c(-c3ccccc3)cc(C#N)c(N(S(C)(=O)=O)S(C)(=O)=O)c2C1 [Compound 56]      < 20%

Please look at this molecule and report its inhibition at 50 µM: CCN1CCc2c(-c3cccnc3)cc(C#N)c(N)c2C1 [Compound 54]
> 50%

Please look at this molecule and report its inhibition at 50 µM: CCN1CCc2c(-c3cc(Cl)ccc3OC)cc(C#N)c(N)c2C1 [Compound 44]
> 50%

Please look at this molecule and report its inhibition at 50 µM: CC(=O)N1CCc2c(-c3ccccc3)cc(C#N)c(N)c2C1 [Compound 29]
20 to 30%
